Recorded binding score for the following binders
Target: T1, CaBdf1 BD1 (GST-tagged, wild-type) (Candida albicans (strain SC5314 / ATCC …, UniProt Q5A4W8))
T1 chain: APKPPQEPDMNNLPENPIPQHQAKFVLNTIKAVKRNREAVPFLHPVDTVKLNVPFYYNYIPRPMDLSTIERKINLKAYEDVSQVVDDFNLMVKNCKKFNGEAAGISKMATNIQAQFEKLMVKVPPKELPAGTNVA
Experiment: histone peptide array (Active Motif MODified), 1 uM GST-tagged bromodomain, anti-GST detection, normalized mean intensity
Square brackets hold non-standard residues; d marks the D form. Ends that are not written are not given here. pT = C[C@@H](OP(=O)(O)O)[C@H](N)C(=O)O
Give your answer as a number; write no unit.

Example entries begin here.
| BINDER | binding score |
| --- | --- |
| ARTKQTARKSTGGKAPRKQ (A Rme2a T Kme3 Q T A Rme2a Kme3 S T G G K A P R K Q) | 0.00399 |
| SGRGKQGGKARAK(Ac)AKSRSS [H2a 1-19] | 0.0943 |
| AR[pT]K(Me)QTARKSTGGKAPRKQ | 0.00471 |

Please indicate binding score recorded for SGRGKGGKGLGKGGAKRHR (pS G R G Kac G G K G L G K G G A K R H R) [H4 1-19]
0.0167

For the binder ARTKQTARKSTGGKAPRKQ (A R T K Q T A Rme2a Kme2 pS pT G G K A P R K Q) , give its measured binding score value.
0.00471

Identify measured binding score associated with ARTKQTARKSTGGKAPRKQ (A Rme2s pT Kme2 Q T A R K S T G G K A P R K Q)
0.00363

Report binding score, nothing else, for this binder: ARTKQTARKSTGGKAPRKQ (A Rme2s T Kac Q T A Rme2a Kac S T G G K A P R K Q)
0.0573

Supply binding score value. Item: PDPAK(Ac)SAPAPKKGSK(Ac)KAVT [H2B 1-19]
0.0323

FYI, the data here is from paper PMC5454392.
